Target: C1QTNF1
Assay: pooled miR-30 sensor sort-seq; sequence = guide strand; note: reference of the scale not given here
Conditions: shRNA
Hi, to clarify the labels: 1.0 covers sensor-assay potency score (higher = more potent) from -0.9 upward, 0.0 covers anything below -0.9.

Here's what some known entries look like.
* TCACAGCAGCGCAAGCACCGGG | 1.0
* TCGATCTCCGCGGTCACCCTTC | 0.0
* AAGATAGTGATGTTGATCTGGG | 1.0
* TAGAACTTGCCGGTGAACATGT | 1.0

Query: Can `TTGGAGGCCTCGATCTCCGCGG` be said to have sensor-assay potency score (higher = more potent) at or above -0.9?
Result: 0.0

* * *

Target: XAGE5
Assay: pooled miR-30 sensor sort-seq; sequence = guide strand
Conditions: shRNA
recorded_endpoint: sensor-assay potency score (higher = more potent)
Could you respond with only the numeric value?

- TTGGTGGTTCTTCTTGTTGAGG: -1.63
- TTCTTCTTGTTGAGGCTCTGGC: -0.323
- TTTTAAATTGCTCTGATTTTGG: -0.858

The value of sensor-assay potency score (higher = more potent) measured for the sequence `TTCAGTTGGTGGTTCTTCTTGT` turned out to be 0.414

The value of sensor-assay potency score (higher = more potent) measured for the sequence `TATCTCCGCATTCATCCCCAGT` turned out to be -1.35

The value of sensor-assay potency score (higher = more potent) measured for the sequence `TGAGCAAGTCGTAAACATCGTC` turned out to be -0.511

* * *

Biological target: UBXN2A
Test: pooled miR-30 sensor sort-seq; sequence = guide strand
Conditions: shRNA
Readings of sensor-assay potency score (higher = more potent) for the listed sequences
Could you respond with only the numeric value?

The cases that follow already have their sensor-assay potency score (higher = more potent) on record.
* ATAACTTCTGAAATCGTCGTTG | 0.446
* TTTTATATTTACATCTACCTGT | 0.256
* TTGTACTTATCTAAACATCTTC | -0.32
* TTCTTTATCAAAAATTCCCTGT | -0.0297
* TATATTTACATCTACCTGTTTC | -0.892

Attention now shifts to the item below.
The value of sensor-assay potency score (higher = more potent) measured for the sequence `TTAAATTTCTGGACAATCCTTT` turned out to be 0.433

* * *

Readings of sensor-assay potency score (higher = more potent) for the listed sequences
Molecular target: C8orf37
Assay: pooled miR-30 sensor sort-seq; sequence = guide strand
Conditions: shRNA
Could you respond with only the numeric value?

The value of sensor-assay potency score (higher = more potent) measured for the sequence `TACATGATCTTCCTTAGTCCAT` turned out to be -0.774

The value of sensor-assay potency score (higher = more potent) measured for the sequence `TTCTTCTTTATCAACTTTGCTT` turned out to be -0.238

The value of sensor-assay potency score (higher = more potent) measured for the sequence `TTATAATACATGATCTTCCTTA` turned out to be 0.582

The value of sensor-assay potency score (higher = more potent) measured for the sequence `TCTTCTTTATCAACTTTGCTTT` turned out to be -0.627

The value of sensor-assay potency score (higher = more potent) measured for the sequence `TTAAATGTTTCTGTTGATCTGA` turned out to be 0.482

The value of sensor-assay potency score (higher = more potent) measured for the sequence `TTGATGAGGTAAGATCAGCTAT` turned out to be -0.469

The value of sensor-assay potency score (higher = more potent) measured for the sequence `TTAATTTGTGAAATTCTGGCAT` turned out to be 0.766

* * *

Readings of sensor-assay potency score (higher = more potent) for the listed sequences
Molecular target: LNX1
Experiment: pooled miR-30 sensor sort-seq; sequence = guide strand
Conditions: shRNA
Could you respond with only the numeric value?

The cases that follow already have their sensor-assay potency score (higher = more potent) on record.
- AAAGCTTTGAGTACTATCGAGG: -0.642
- TTTATTCTTCCATCTCTGCTTA: 0.44

Attention now shifts to the item below.
Kindly note: LNX1, `TTACAGTTATACAAGCACCGTG` , sensor-assay potency score (higher = more potent) value reported: -0.215

* * *

Biological target: HMGN1
Test: pooled miR-30 sensor sort-seq; sequence = guide strand
Details: shRNA
Hi, to clarify the labels: Satisfied covers sensor-assay potency score (higher = more potent) from -1 upward, Not satisfied covers anything below -1.

Here's what some known entries look like.
- TTCGCTTCCACTTTTGCAGGAG: Satisfied
- AAGATTTATCCTTCGCTGCTGC: Satisfied
- TAGGATATAAAAACTAACCCCC: Satisfied
- TTGGTTAGCCACTTCGGCCTGT: Satisfied

Query: Can `TTATCCTTCGCTGCTGCCTTTT` be said to have sensor-assay potency score (higher = more potent) at or above -1?
Result: Not satisfied

* * *

Target: APOBEC3A
Assay: pooled miR-30 sensor sort-seq; sequence = guide strand
Details: shRNA
Hi, to clarify the labels: true covers sensor-assay potency score (higher = more potent) from -0.7 upward, false covers anything below -0.7.

Here's what some known entries look like.
- TTAAATTCATCGTAGGTCATGA: true
- TTAGTCTAGATATGAAGCCAAA: false

Query: Can `TGGTCCATCTTGACCGAGGTGC` be said to have sensor-assay potency score (higher = more potent) at or above -0.7?
Result: false

Query: Can `TTCGTAGCACAGGTAGGTCTTA` be said to have sensor-assay potency score (higher = more potent) at or above -0.7?
Result: true

* * *

Readings of sensor-assay potency score (higher = more potent) for the listed sequences
Biological target: RGS9
Test: pooled miR-30 sensor sort-seq; sequence = guide strand
Conditions: shRNA
Could you respond with only the numeric value?

- TTGCCATCTATGTTGATCCAGC: -0.689
- TTGTTTCTTGACTTCATTCGGA: 0.389
- TATCTGTCTGCTTTGTTCCTCT: -0.0404
- TTGCAGAACATCACTTCCTGTC: 0.603
- TGACTTTGGACTGATCTCCATA: -0.742

The value of sensor-assay potency score (higher = more potent) measured for the sequence `TTTTTGACAGCAACGACTGTTT` turned out to be -0.217

The value of sensor-assay potency score (higher = more potent) measured for the sequence `TTCCTTTTCATATTCTTCCAAA` turned out to be -0.756

The value of sensor-assay potency score (higher = more potent) measured for the sequence `TTGAGAATGAGATTCTTGGGGT` turned out to be 0.816

* * *

Target: MLL
Test: pooled miR-30 sensor sort-seq; sequence = guide strand
Details: shRNA
recorded_endpoint: sensor-assay potency score (higher = more potent)
Could you respond with only the numeric value?

The cases that follow already have their sensor-assay potency score (higher = more potent) on record.
- TTCTGTTGTAGGCAGCTGCTGA: -0.148
- TATACTTTTAGAATCTTTCTTC: 0.988
- TTTGCTTAGAACTATTGCCATT: -1.46
- TTGTTTAAGACTCTTACTCTTC: -0.426

Attention now shifts to the item below.
The value of sensor-assay potency score (higher = more potent) measured for the sequence `TTTTCGTCGTTCTAGATCCAAA` turned out to be -1.11

* * *

Biological target: DGKH
Test: pooled miR-30 sensor sort-seq; sequence = guide strand
Conditions: shRNA
recorded_endpoint: sensor-assay potency score (higher = more potent)

• TTGCTCTACAGAAACCATCGGA = 0.0953

The value of sensor-assay potency score (higher = more potent) measured for the sequence `TACAGTTTCACATAGCGTCTTG` turned out to be -0.34

The value of sensor-assay potency score (higher = more potent) measured for the sequence `TTTACCAGAATCACACTTCTGC` turned out to be 0.827

The value of sensor-assay potency score (higher = more potent) measured for the sequence `TATGTCATTATACTCCACCTGT` turned out to be -0.182

The value of sensor-assay potency score (higher = more potent) measured for the sequence `TTGTTGATAATCGAACTCCCAG` turned out to be -0.448

The value of sensor-assay potency score (higher = more potent) measured for the sequence `TGAACTTGTCTTCTGCTTCTGA` turned out to be 0.759

The value of sensor-assay potency score (higher = more potent) measured for the sequence `TTGAATTTACACACTTCGCAGG` turned out to be -0.529

* * *

Target: ISLR2
Experiment: pooled miR-30 sensor sort-seq; sequence = guide strand
Conditions: shRNA
Readings of sensor-assay potency score (higher = more potent) for the listed sequences
Could you respond with only the numeric value?

* TTGAGCTCTGCGCTCTGGTTGA | -0.693
* TTTGTAAGCGCAGTCCGCGAAC | -1.25
* TTGAAAACAACGAAAACAGGAA | -0.395
* TTGTCAGGGACTACACGCCGGG | -0.648

Attention now shifts to the item below.
The value of sensor-assay potency score (higher = more potent) measured for the sequence `TTTCCAAAGTCTTCGCTCGTTT` turned out to be -0.577
